# assay-system: T1, extracellular domain of hIL10Rb (human, UniProt Q08334 20-220)
# T1 construct: also called hIL10Rb ECD; human IL10Rb
# T1 sequence: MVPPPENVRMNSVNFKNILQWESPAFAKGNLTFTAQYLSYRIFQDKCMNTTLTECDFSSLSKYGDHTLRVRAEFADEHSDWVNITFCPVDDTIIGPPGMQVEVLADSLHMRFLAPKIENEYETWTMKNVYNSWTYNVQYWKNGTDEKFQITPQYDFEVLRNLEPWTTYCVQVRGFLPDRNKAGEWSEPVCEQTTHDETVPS
# method-notes: flow cytometry
reported-metric: binding result

Below are worked cases with known answers.
[
  {
    "binder": "hIL10Rb_VHH-27 (VHH, anti-hIL10Rb camel VHH) VHH: QVQLQESGGGSVQTGGSLRLSCAASGYTYLRGCMGWFRQAPGKEREGVAVMDVVGDRRSYIDSVKGRFTISRDNAANSVYLQMDNLKPEDTAMYYCTAGPNCVGWRSGLDYWGQGTQVTVSS",
    "reported-metric": "binding result",
    "reading": "binds"
  },
  {
    "binder": "hIL10Rb_VHH-15 (VHH, anti-hIL10Rb camel VHH) VHH: QVQLQESGGGSVQAGGSLRLSCTVSRYTASVNYMGWFRQAPGKEREGVATIFTGAGTTYYANSVKGRFTISRDNAKNTAYLQMNSLKPEDTAIYYCAVDFRGGLLYRPAYEYTYRGQGTQVTVSS",
    "reported-metric": "binding result",
    "reading": "binds"
  },
  {
    "binder": "hIL10Rb_VHH-17 (VHH, anti-hIL10Rb camel VHH) VHH: QVQLQESGGGSVQAGGSLRLSCTVSRYTASVNYMGWFRQAPGKEREGVATIFTGAGTTYYANSVKGRFTISRDNAKNTAYLQMNSLKPEDTAMYYCAVDFRGGLLYRPAYEYTYRGQGTQVTVSS",
    "reported-metric": "binding result",
    "reading": "binds"
  },
  {
    "binder": "hIL10Rb_VHH-24 (VHH, anti-hIL10Rb camel VHH) VHH: QVQLQESGGGSVQAGGSLKLSCAASGYTYSSYCMGWFRQAPGKEREGVAHIDSDGSTTYADSVKGRFTISKDNAKNTLYLQMNSLKPEDTAMYYCAADPIPGPGYCDGGPNNYWGQGTQVTVSS",
    "reported-metric": "binding result",
    "reading": "binds"
  },
  {
    "binder": "hIL10Rb_VHH-22 (VHH, anti-hIL10Rb camel VHH) VHH: QVQLQESGGGSVQAGGSLRLSCAASGYTDSRYCMGWFRKAPGKEREGVAHIDSDGSTSYADSVKGRFTISKDNAKNTLYLQMNSLKPEDTAMYYCAADPIPGPGYCDGGPNKYWGQGTQVTVSS",
    "reported-metric": "binding result",
    "reading": "binds"
  },
  {
    "binder": "hIL10Rb_VHH-16 (VHH, anti-hIL10Rb camel VHH) VHH: QVQLQESGGGSVEAGGSLRLSCAASGYTHSSYCMGWFRQAPGKEREGVAAIDVDGSTTYADSVKGRFTISKDNAKNTLYLQMNSLKPEDTGMYYCAAEFADCSSNYFLPPGAVRYWGQGTQVTVSS",
    "reported-metric": "binding result",
    "reading": "binds"
  },
  {
    "binder": "hIL10Rb_VHH-14 (VHH, anti-hIL10Rb camel VHH) VHH: QVQLQESGGGSVQAGGSLRLSCAASGYTYSSGCMGWFRQAPGKEREGVATINSDGSTNYADSVKGRFTISKDNAKNTLYLQMNSLKPEDTGMYYCAAEPYCSGGYPRWSVAEFGYWGQGTQVTVSS",
    "reported-metric": "binding result",
    "reading": "binds"
  }
]

Prompt line: Return reported binding result. Input binder: hIL10Rb_VHH-10 (VHH, anti-hIL10Rb camel VHH) VHH: QVQLQESGGGLVQPGGSLRLSCAASGYTYSSYCMGWFRQAPGKEREGVAHIDSDGSTTYADSVKGRFAISKDNAKNTLYLQMNSLKPEDTAMYYCAADPIPGPGYCDGGPNKYWGQGTQVTVSS
Response line: binds
